Hi there, I'd appreciate the recorded IC50 for every entry that follows.
System: human SMAD7 mRNA
Experiment: Dose-dependent inhibition of human SMAD7 mRNA expression in Hep3B cells (Example 3, Study 1 and 2)
Format: cell-based
Details: electroporation, Study 2 (740-20000 nM)
Strand notation (5' to 3'): a small letter for the sugar, then the base; units joined by * are phosphorothioate-linked, units joined directly phosphodiester-linked; [ ] holds rarer units or linkages, { } end groups; capitals alone tell only the bases. k = constrained ethyl (cEt); [5mC] = 5-methylcytosine; d = 2'-deoxy (DNA)

Substance	IC50
798696 (antisense kT*k[5mC]*k[5mC]*d[5mC]*d[5mC]*d[5mC]*dT*dG*d[5mC]*dG*d[5mC]*d[5mC]*d[5mC]*kT*k[5mC]*k[5mC]) [compound 798696]	< 700 nM
799118 (antisense kA*kG*kA*dG*d[5mC]*dT*dT*dA*dA*d[5mC]*dA*d[5mC]*dA*k[5mC]*kA*kG) [compound 799118]	< 700 nM

Sample 790636 (kA*kG*k[5mC]*dA*dT*d[5mC]*dT*dG*dG*dA*d[5mC]*dA*dG*kT*k[5mC]*kA; antisense) [compound 790636] ; IC50 observed: < 700 nM

###

System: human SMAD7 mRNA
Assay: Antisense inhibition of human SMAD7 mRNA expression in Hep3B cells by 3-10-3 cEt gapmers, 10,000 nM, electroporation (Example 2)
Type: cell-based
Details: SMAD7 mRNA, Hep3B cells, 10,000 nM antisense oligonucleotide, electroporation, approximately 24 hours, primer probe set RTS5062, relative to untreated control cells
Strand notation (5' to 3'): a small letter for the sugar, then the base; units joined by * are phosphorothioate-linked, units joined directly phosphodiester-linked; [ ] holds rarer units or linkages, { } end groups; capitals alone tell only the bases. k = constrained ethyl (cEt); [5mC] = 5-methylcytosine; d = 2'-deoxy (DNA)
Outcome measure: % Inhibition (%)
Numbers only, in %.

Dear colleague, could you send me % Inhibition for each of the items below? Thanks.
1. 790679 (kA*kG*kG*dT*dT*dA*dA*dT*d[5mC]*dA*d[5mC]*dT*dT*k[5mC]*k[5mC]*kT; antisense) [compound 790679]
2. 790529 (kA*kG*k[5mC]*dT*dG*dA*dT*d[5mC]*dT*dG*d[5mC]*dA*d[5mC]*kG*kG*kT; antisense) [compound 790529]
3. 829775 (antisense k[5mC]*kG*kA*dG*dT*dA*dG*dG*dA*d[5mC]*dG*dA*dG*kG*kG*k[5mC]) [compound 829775]
4. 829789 (kA*k[5mC]*kT*dT*d[5mC]*d[5mC]*dG*dA*dG*dG*dA*dA*dT*kG*k[5mC]*k[5mC]; antisense) [compound 829789]
5. 800771 (antisense k[5mC]*k[5mC]*k[5mC]*dG*d[5mC]*dA*dG*d[5mC]*dT*d[5mC]*dG*d[5mC]*d[5mC]*kT*k[5mC]*k[5mC]) [compound 800771]

Result:
13
65
59
42
46

###

Tested on: human SMAD7 mRNA
Experiment: Antisense inhibition of human SMAD7 mRNA expression in Hep3B cells by 5-10-5 MOE gapmers, single concentration, electroporation, RT-PCR (Example 1, Study 1 and 2)
Assay type: cell-based
Conditions: electroporation, 15,000 nM antisense oligonucleotide (Study 2), 5-10-5 MOE gapmers targeting SEQ ID NO: 1 and 2
Strand notation (5' to 3'): a small letter for the sugar, then the base; units joined by * are phosphorothioate-linked, units joined directly phosphodiester-linked; [ ] holds rarer units or linkages, { } end groups; capitals alone tell only the bases. e = 2'-O-(2-methoxyethyl) (MOE); [5mC] = 5-methylcytosine; d = 2'-deoxy (DNA)
Classify by measured % inhibition of SMAD7 mRNA expression: t if it is equal to or exceeds 10%, f if it is smaller.

Examples with answers:
Substance	Category
771858 (antisense e[5mC]*eT*eG*e[5mC]*e[5mC]*dA*dA*d[5mC]*dG*dG*d[5mC]*dA*d[5mC]*dA*dG*eT*e[5mC]*eA*eT*eA) [compound 771858]	t
771706 (antisense eG*eG*eG*e[5mC]*e[5mC]*dT*dG*dG*dA*d[5mC]*d[5mC]*dA*dA*dA*dT*e[5mC]*e[5mC]*eA*eA*e[5mC]) [compound 771706]	t
771379 (antisense eG*eA*eT*e[5mC]*e[5mC]*dA*dT*d[5mC]*dT*dT*dT*dA*dA*dG*d[5mC]*eA*e[5mC]*eG*e[5mC]*eT) [compound 771379]	f
771569 (antisense eG*eG*eA*e[5mC]*eT*dG*d[5mC]*dA*dA*dA*d[5mC]*d[5mC]*dT*d[5mC]*dT*e[5mC]*eT*eG*e[5mC]*eT) [compound 771569]	t
771913 (antisense eA*eA*eA*eA*eA*dA*dG*d[5mC]*d[5mC]*dA*dG*dT*dA*dA*dA*eG*eA*e[5mC]*eA*eT) [compound 771913]	t

Q: Has 771363 (antisense eT*e[5mC]*eA*eG*eG*d[5mC]*dT*dT*d[5mC]*dA*d[5mC]*dT*dG*d[5mC]*d[5mC]*e[5mC]*eA*eT*e[5mC]*eG) [compound 771363] a recorded % inhibition of SMAD7 mRNA expression greater than or equal to 10%?
Result: t

Q: Exam item: decide whether the reported % inhibition of SMAD7 mRNA expression for 771946 (antisense eG*eG*eG*e[5mC]*eT*dA*d[5mC]*d[5mC]*dT*dT*dA*dA*d[5mC]*dA*dA*eA*eG*e[5mC]*eT*eT) [compound 771946] is at least 10%.
Result: t

Q: Decide: % inhibition of SMAD7 mRNA expression of 771890 (antisense eA*eG*eT*e[5mC]*eT*dG*dA*dA*dG*d[5mC]*d[5mC]*d[5mC]*d[5mC]*d[5mC]*dA*eA*e[5mC]*e[5mC]*eT*eG) [compound 771890] >= 10%?
Result: t

Q: Is reported % inhibition of SMAD7 mRNA expression greater than or equal to 10% here: 771720 (antisense e[5mC]*eA*eG*eG*e[5mC]*dA*dG*dA*dG*d[5mC]*dT*dA*dT*dG*d[5mC]*eT*eT*e[5mC]*eA*eA) [compound 771720]
Result: t

Q: Determine whether measured % inhibition of SMAD7 mRNA expression meets or exceeds 10% for 771832 (antisense eA*e[5mC]*e[5mC]*eT*eT*dT*d[5mC]*dA*d[5mC]*dG*dA*dA*d[5mC]*d[5mC]*dA*e[5mC]*eT*eT*eT*eT) [compound 771832]
Result: t
